Target: T1, human CD123 (full-length, on cells) (human, UniProt P26951 19-378)
T1 construct: also called CD123-FL; interleukin-3 receptor alpha chain
T1 sequence (P26951 19-378): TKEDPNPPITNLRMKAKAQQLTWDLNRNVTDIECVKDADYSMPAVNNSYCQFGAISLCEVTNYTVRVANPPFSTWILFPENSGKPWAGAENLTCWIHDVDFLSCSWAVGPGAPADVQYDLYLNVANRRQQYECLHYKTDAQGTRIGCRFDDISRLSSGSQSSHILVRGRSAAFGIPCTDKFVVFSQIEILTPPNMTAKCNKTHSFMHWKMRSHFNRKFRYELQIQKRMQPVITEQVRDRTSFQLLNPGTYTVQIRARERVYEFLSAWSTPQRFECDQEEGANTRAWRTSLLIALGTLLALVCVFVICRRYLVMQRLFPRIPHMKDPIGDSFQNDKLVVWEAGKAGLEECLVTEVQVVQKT
Experiment: flow cytometry on HEK 293 cells transfected with full-length CD123; apparent Kd, one-site fit
Label key: fulfilled means Kd under 0.6 nM; not fulfilled means Kd of 0.6 nM or more.

- BINDER: "1F5-IgG1 (Fc fusion) QVQLVQSGGGLVQAGGSLTVSCTASGRAINMYAMGWFRQAPGKEREFVAAINWNGAYTQYADSVKGRFTISRDNAKNTMYLQMNSLKPEDTAQYYCSADADYNTYVSPNKRVSYWGQGTQVTVDKTHTCPPCPAPGGPSVFLFPPKPKDTLMISRTPEVTCVVVDVSHEDPEVKFNWYVDGVEVHNAKTKPREEQYNSTYRVVSVLTVLHQDWLNGKEYKCKVSNKALPAPIEKTISKAKGQPREPQVYTLPPSRDELTKNQVSLTCLVKGFYPSDIAVEWESNGQPENNYKTTPPVLDSDGSFFLYSKLTVDKSRWQQGNVFSCSVMHEALHNHYTQKSLSLSPGK"
  LABEL: "not fulfilled"
- BINDER: "hzA5v2-IgG1 (Fc fusion, also called hzA5v2 sdAb) EVQLVESGGGEVQPGGSLRLSCAASGGTFSSYGMAWFRQAPGKEREWVASNSWIAGSTYYAESVKGRFTISRDNAKNTVYLQMSSLRAEDTAVYYCAADLLATADDEYDYWGQGTLVTVDKTHTCPPCPAPGGPSVFLFPPKPKDTLMISRTPEVTCVVVDVSHEDPEVKFNWYVDGVEVHNAKTKPREEQYNSTYRVVSVLTVLHQDWLNGKEYKCKVSNKALPAPIEKTISKAKGQPREPQVYTLPPSRDELTKNQVSLTCLVKGFYPSDIAVEWESNGQPENNYKTTPPVLDSDGSFFLYSKLTVDKSRWQQGNVFSCSVMHEALHNHYTQKSLSLSPGK"
  LABEL: "fulfilled"

Task: Hi there! Is Kd for 1B11-IgG1 (Fc fusion) QVQLVQSGGGSVQAGGSLRLSCAAAGRTQSAVAMGWFRQDPGKDRDFVAAIRWSGGNTYYADSAEGRFTISRDNAKNTVYLQMDSLKPEDTAVYSCAISMNHFGMYDYWGQGTQVTVDKTHTCPPCPAPGGPSVFLFPPKPKDTLMISRTPEVTCVVVDVSHEDPEVKFNWYVDGVEVHNAKTKPREEQYNSTYRVVSVLTVLHQDWLNGKEYKCKVSNKALPAPIEKTISKAKGQPREPQVYTLPPSRDELTKNQVSLTCLVKGFYPSDIAVEWESNGQPENNYKTTPPVLDSDGSFFLYSKLTVDKSRWQQGNVFSCSVMHEALHNHYTQKSLSLSPGK below 0.6 nM, do you know?
Result: fulfilled

Task: # check: Kd < 0.6 nM for F3-IgG1 (Fc fusion, also called sdAb F3) EVQLVQSGGGLVQAGGSLRLSCRASGRAINSYNMGWFRQAPGKEREFVSAINWNGARTYYQDALKGRFAISRDNARNTMYLQMNNLKPEDTAVYYCAAAGRWSAAVPSGEDQYNFWGQGTQVTVDKTHTCPPCPAPGGPSVFLFPPKPKDTLMISRTPEVTCVVVDVSHEDPEVKFNWYVDGVEVHNAKTKPREEQYNSTYRVVSVLTVLHQDWLNGKEYKCKVSNKALPAPIEKTISKAKGQPREPQVYTLPPSRDELTKNQVSLTCLVKGFYPSDIAVEWESNGQPENNYKTTPPVLDSDGSFFLYSKLTVDKSRWQQGNVFSCSVMHEALHNHYTQKSLSLSPGK
Result: fulfilled

Task: In plain terms, does hz1F5v2-IgG1 (Fc fusion) EVQLVESGGGEVQPGGSLRLSCTASGRAINMYAMGWFRQAPGKEREFVAAINWNGAYTQYAESVKGRFTISRDNAKNTLYLQMSSLRAEDTAVYYCSADADYNTYVSPNKRVSYWGQGTLVTVDKTHTCPPCPAPGGPSVFLFPPKPKDTLMISRTPEVTCVVVDVSHEDPEVKFNWYVDGVEVHNAKTKPREEQYNSTYRVVSVLTVLHQDWLNGKEYKCKVSNKALPAPIEKTISKAKGQPREPQVYTLPPSRDELTKNQVSLTCLVKGFYPSDIAVEWESNGQPENNYKTTPPVLDSDGSFFLYSKLTVDKSRWQQGNVFSCSVMHEALHNHYTQKSLSLSPGK come in under 0.6 nM for Kd?
Result: not fulfilled
